Target: NanR (Escherichia coli K12)
Sequence: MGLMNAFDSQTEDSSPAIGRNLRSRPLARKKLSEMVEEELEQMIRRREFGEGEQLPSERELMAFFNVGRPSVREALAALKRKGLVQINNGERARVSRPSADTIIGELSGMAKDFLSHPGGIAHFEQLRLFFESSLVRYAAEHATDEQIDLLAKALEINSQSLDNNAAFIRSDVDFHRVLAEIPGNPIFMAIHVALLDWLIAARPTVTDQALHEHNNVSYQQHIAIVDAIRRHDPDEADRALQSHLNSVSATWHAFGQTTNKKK
Experiment: EMSA
Conditions: Hill n = 2.8 ± 0.3; two complexes; 10 nM DNA; EMSA: 10 mM MOPS pH 7.5, 50 mM KCl, 5 mM MgCl2, 10% glycerol, 30 min at room temperature, gel at 4 C; fluorescence AUC: 20 mM Tris-HCl pH 8.0, 150 mM NaCl …
observable: Kd (nM)
Note: unit nM is implicit; provide only the numeric part.

Quick one: Kd for (GGTATA)2-repeat, FAM ?
25

---

Biological target: NanR (Escherichia coli K12) (UniProt P0A8W0)
Sequence: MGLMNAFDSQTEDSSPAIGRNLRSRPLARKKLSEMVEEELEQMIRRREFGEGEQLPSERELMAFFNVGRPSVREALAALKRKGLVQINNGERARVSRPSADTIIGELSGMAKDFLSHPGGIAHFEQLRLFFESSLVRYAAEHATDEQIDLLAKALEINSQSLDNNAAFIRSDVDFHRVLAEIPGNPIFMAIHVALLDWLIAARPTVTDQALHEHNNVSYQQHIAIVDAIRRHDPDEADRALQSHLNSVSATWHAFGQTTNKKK
Test: EMSA
Details: Hill n = 2.0 ± 0.2; apparent KD; 10 nM DNA; EMSA: 10 mM MOPS pH 7.5, 50 mM KCl, 5 mM MgCl2, 10% glycerol, 30 min at room temperature, gel at 4 C; fluorescence AUC: 20 mM Tris-HCl pH 8.0, 150 mM NaCl …
observable: Kd

Quick check: Kd of (GGTATA)3-repeat operator, FAM ?
39 nM

---

Molecular target: NanR (Escherichia coli K12) (UniProt P0A8W0)
Sequence: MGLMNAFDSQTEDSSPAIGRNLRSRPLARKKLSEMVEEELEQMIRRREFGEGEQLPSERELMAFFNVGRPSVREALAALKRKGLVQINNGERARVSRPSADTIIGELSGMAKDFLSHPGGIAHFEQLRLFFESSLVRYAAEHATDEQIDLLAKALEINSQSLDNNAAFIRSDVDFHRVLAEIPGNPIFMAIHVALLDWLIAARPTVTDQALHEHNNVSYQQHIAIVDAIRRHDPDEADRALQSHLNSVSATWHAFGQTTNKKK
Experiment: fluorescence-detected AUC
Conditions: Hill n = 1.9 ± 0.2; no Neu5Ac; 80 nM DNA; EMSA: 10 mM MOPS pH 7.5, 50 mM KCl, 5 mM MgCl2, 10% glycerol, 30 min at room temperature, gel at 4 C; fluorescence AUC: 20 mM Tris-HCl pH 8.0, 150 mM NaCl …
observable: pKd
A value of pKd is the negative decimal logarithm of a concentration given in moles per litre.

What measured pKd goes with (GGTATA)3-repeat operator, FAM ?
7.70

---

Target: NanR (Escherichia coli K12) (UniProt P0A8W0)
Sequence: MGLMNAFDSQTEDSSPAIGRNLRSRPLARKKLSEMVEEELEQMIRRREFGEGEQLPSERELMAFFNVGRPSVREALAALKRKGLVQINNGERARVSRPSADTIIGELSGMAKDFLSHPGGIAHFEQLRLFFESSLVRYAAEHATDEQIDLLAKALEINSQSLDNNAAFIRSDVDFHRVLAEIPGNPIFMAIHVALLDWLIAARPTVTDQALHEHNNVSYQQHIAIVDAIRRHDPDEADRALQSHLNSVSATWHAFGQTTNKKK
Experiment: fluorescence-detected AUC
Conditions: 20 mM Neu5Ac; Hill n = 2.0 ± 0.6; 80 nM DNA; EMSA: 10 mM MOPS pH 7.5, 50 mM KCl, 5 mM MgCl2, 10% glycerol, 30 min at room temperature, gel at 4 C; fluorescence AUC: 20 mM Tris-HCl pH 8.0, 150 mM NaCl …
observable: pKd
Formally, pKd is defined as -log10 of the concentration c, with c in mol/L.

Fill in: pKd of (GGTATA)3-repeat operator, FAM is ___
6.24
